System: Staphylococcus aureus VISA Met-R (code 3797)
Settings: S. aureus VISA Met-R code 3797; 0.02% albumine bovine serum; read after 24 h
readout_label: Minimal Inhibitory Concentrations (µg/mL)
The reply should contain only the number, in µg/mL.

Req: Data request, read-out Minimal Inhibitory Concentrations, for C=C1NC(=O)[C@H](C(C)C)NC(=O)[C@H](NC(=O)/C(=C/C)NC(=O)[C@@H](N)[C@@H](C)CC)CSC[C@@H](C(=O)N[C@H]2C(=O)N3CCC[C@H]3C(=O)NCC(=O)N[C@H](C(=O)N[C@H](C(=O)N[C@@H]3CSC[C@@H]4NC(=O)CNC(=O)[C@@H](CSC[C@@H]5NC(=O)[C@H](Cc6c[nH]cn6)NC(=O)[C@@H](CSC[C@@H](C(=O)NC6CCCCC6)NC5=O)NC4=O)NC(=O)CNC(=O)CNC(=O)CNC(=O)[C@H](CCC(=O)NC4CCCCC4)NC3=O)[C@@H](C)O)CS[C@H]2C)NC(=O)[C@H](Cc2c[nH]c3ccccc23)NC1=O
Resp: 4

====

Test system: E. faecalisVanA (code 560)
Conditions: E. faecalis VanA code 560; 0.02% albumine bovine serum; read after 24 h
readout_label: Minimal Inhibitory Concentrations (µg/mL)
The reply should contain only the number, in µg/mL.

smiles_repr: C=C1NC(=O)[C@H](C(C)C)NC(=O)[C@H](NC(=O)/C(=C/C)NC(=O)[C@@H](N)[C@@H](C)CC)CSC[C@@H](C(=O)N[C@H]2C(=O)N3CCC[C@H]3C(=O)NCC(=O)N[C@H](C(=O)N[C@H](C(=O)N[C@@H]3CSC[C@@H]4NC(=O)CNC(=O)[C@@H](CSC[C@@H]5NC(=O)[C@H](Cc6c[nH]cn6)NC(=O)[C@@H](CSC[C@@H](C(=O)NC6CCCCC6)NC5=O)NC4=O)NC(=O)CNC(=O)CNC(=O)CNC(=O)[C@H](CCC(=O)NC4CCCCC4)NC3=O)[C@@H](C)O)CS[C@H]2C)NC(=O)[C@H](Cc2c[nH]c3ccccc23)NC1=O
units: µg/mL
observed_value: 1
--
smiles_repr: C=C1NC(=O)[C@H](C(C)C)NC(=O)[C@H](NC(=O)/C(=C/C)NC(=O)[C@@H](N)[C@@H](C)CC)CSC[C@@H](C(=O)N[C@H]2C(=O)N3CCC[C@H]3C(=O)NCC(=O)N[C@H](C(=O)N[C@H](C(=O)N[C@@H]3CSC[C@@H]4NC(=O)CNC(=O)[C@@H](CSC[C@@H]5NC(=O)[C@H](Cc6c[nH]cn6)NC(=O)[C@@H](CSC[C@@H](C(=O)NCCCN(C)C)NC5=O)NC4=O)NC(=O)CNC(=O)CNC(=O)CNC(=O)[C@H](CCC(=O)NCCCN(C)C)NC3=O)[C@@H](C)O)CS[C@H]2C)NC(=O)[C@H](Cc2c[nH]c3ccccc23)NC1=O
units: µg/mL
observed_value: 4
--
smiles_repr: C=C1NC(=O)[C@H](C(C)C)NC(=O)[C@H](NC(=O)/C(=C/C)NC(=O)[C@@H](N)[C@@H](C)CC)CSC[C@@H](C(=O)N[C@H]2C(=O)N3CCC[C@H]3C(=O)NCC(=O)N[C@H](C(=O)N[C@H](C(=O)N[C@@H]3CSC[C@@H]4NC(=O)CNC(=O)[C@@H](CSC[C@@H]5NC(=O)[C@H](Cc6c[nH]cn6)NC(=O)[C@@H](CSC[C@@H](C(=O)NCCOC)NC5=O)NC4=O)NC(=O)CNC(=O)CNC(=O)CNC(=O)[C@H](CCC(=O)NCCOC)NC3=O)[C@@H](C)O)CS[C@H]2C)NC(=O)[C@H](Cc2c[nH]c3ccccc23)NC1=O
units: µg/mL
observed_value: 16

Shifting focus to the molecule that follows.
Req: Data request, read-out Minimal Inhibitory Concentrations, for C=C1NC(=O)[C@H](C(C)C)NC(=O)[C@H](NC(=O)/C(=C/C)NC(=O)[C@@H](N)[C@@H](C)CC)CSC[C@@H](C(=O)N[C@H]2C(=O)N3CCC[C@H]3C(=O)NCC(=O)N[C@H](C(=O)N[C@H](C(=O)N[C@@H]3CSC[C@@H]4NC(=O)CNC(=O)[C@@H](CSC[C@@H]5NC(=O)[C@H](Cc6c[nH]cn6)NC(=O)[C@@H](CSC[C@@H](C(=O)NCCN)NC5=O)NC4=O)NC(=O)CNC(=O)CNC(=O)CNC(=O)[C@H](CCC(=O)NCCN)NC3=O)[C@@H](C)O)CS[C@H]2C)NC(=O)[C@H](Cc2c[nH]c3ccccc23)NC1=O
Resp: 2

====

Tested on: S. haemolyticus Met-S (code 1730)
Conditions: 0.02% albumine bovine serum, read after 24 h
readout_label: Minimal Inhibitory Concentrations

smiles_repr: C=C1NC(=O)[C@H](C(C)C)NC(=O)[C@H](NC(=O)/C(=C/C)NC(=O)[C@@H](N)[C@@H](C)CC)CSC[C@@H](C(=O)N[C@H]2C(=O)N3CCC[C@H]3C(=O)NCC(=O)N[C@H](C(=O)N[C@H](C(=O)N[C@@H]3CSC[C@@H]4NC(=O)CNC(=O)[C@@H](CSC[C@@H]5NC(=O)[C@H](Cc6c[nH]cn6)NC(=O)[C@@H](CSC[C@@H](C(=O)NCCCCN(C)C)NC5=O)NC4=O)NC(=O)CNC(=O)CNC(=O)CNC(=O)[C@H](CCC(=O)NCCCCN(C)C)NC3=O)[C@@H](C)O)CS[C@H]2C)NC(=O)[C@H](Cc2c[nH]c3ccccc23)NC1=O
target_of_assay: S. haemolyticus Met-S (code 1730)
Minimal Inhibitory Concentrations: <0.125 µg/mL

Shifting focus to the molecule that follows.
Req: Data request, read-out Minimal Inhibitory Concentrations, for C=C1NC(=O)[C@H](C(C)C)NC(=O)[C@H](NC(=O)/C(=C/C)NC(=O)[C@@H](N)[C@@H](C)CC)CSC[C@@H](C(=O)N[C@H]2C(=O)N3CCC[C@H]3C(=O)NCC(=O)N[C@H](C(=O)N[C@H](C(=O)N[C@@H]3CSC[C@@H]4NC(=O)CNC(=O)[C@@H](CSC[C@@H]5NC(=O)[C@H](Cc6c[nH]cn6)NC(=O)[C@@H](CSC[C@@H](C(=O)NCCN(C)C)NC5=O)NC4=O)NC(=O)CNC(=O)CNC(=O)CNC(=O)[C@H](CCC(=O)NCCN(C)C)NC3=O)[C@@H](C)O)CS[C@H]2C)NC(=O)[C@H](Cc2c[nH]c3ccccc23)NC1=O
Resp: <0.125 µg/mL

====

Tested on: Staphylococcus aureus VISA (code 3798)
Conditions: S. aureus VISA code 3798; 0.02% albumine bovine serum; read after 24 h
Reported Minimal Inhibitory Concentrations values follow for various compounds
Please provide the amount together with its unit, number first.

smiles_repr: C=C1NC(=O)[C@H](C(C)C)NC(=O)[C@H](NC(=O)/C(=C/C)NC(=O)[C@@H](N)[C@@H](C)CC)CSC[C@@H](C(=O)N[C@H]2C(=O)N3CCC[C@H]3C(=O)NCC(=O)N[C@H](C(=O)N[C@H](C(=O)N[C@@H]3CSC[C@@H]4NC(=O)CNC(=O)[C@@H](CSC[C@@H]5NC(=O)[C@H](Cc6c[nH]cn6)NC(=O)[C@@H](CSC[C@@H](C(=O)NCCCN(C)C)NC5=O)NC4=O)NC(=O)CNC(=O)CNC(=O)CNC(=O)[C@H](CCC(=O)NCCCN(C)C)NC3=O)[C@@H](C)O)CS[C@H]2C)NC(=O)[C@H](Cc2c[nH]c3ccccc23)NC1=O
Minimal Inhibitory Concentrations: 0.50 µg/mL

Shifting focus to the compound that follows.
Req: Data request, read-out Minimal Inhibitory Concentrations, for C=C1NC(=O)[C@H](C(C)C)NC(=O)[C@H](NC(=O)/C(=C/C)NC(=O)[C@@H](N)[C@@H](C)CC)CSC[C@@H](C(=O)N[C@H]2C(=O)N3CCC[C@H]3C(=O)NCC(=O)N[C@H](C(=O)N[C@H](C(=O)N[C@@H]3CSC[C@@H]4NC(=O)CNC(=O)[C@@H](CSC[C@@H]5NC(=O)[C@H](Cc6c[nH]cn6)NC(=O)[C@@H](CSC[C@@H](C(=O)NC6CCCCC6)NC5=O)NC4=O)NC(=O)CNC(=O)CNC(=O)CNC(=O)[C@H](CCC(=O)NC4CCCCC4)NC3=O)[C@@H](C)O)CS[C@H]2C)NC(=O)[C@H](Cc2c[nH]c3ccccc23)NC1=O
Resp: 2 µg/mL

====

Test system: Enterococcus faecium VanS (code 568)
Settings: E. faecium VanS code 568; 0.02% albumine bovine serum; read after 24 h
readout_label: Minimal Inhibitory Concentrations (µg/mL)
The reply should contain only the number, in µg/mL.

smiles_repr: C=C1NC(=O)[C@H](C(C)C)NC(=O)[C@H](NC(=O)/C(=C/C)NC(=O)[C@@H](N)[C@@H](C)CC)CSC[C@@H](C(=O)N[C@H]2C(=O)N3CCC[C@H]3C(=O)NCC(=O)N[C@H](C(=O)N[C@H](C(=O)N[C@@H]3CSC[C@@H]4NC(=O)CNC(=O)[C@@H](CSC[C@@H]5NC(=O)[C@H](Cc6c[nH]cn6)NC(=O)[C@@H](CSC[C@@H](C(=O)NCCOC)NC5=O)NC4=O)NC(=O)CNC(=O)CNC(=O)CNC(=O)[C@H](CCC(=O)NCCOC)NC3=O)[C@@H](C)O)CS[C@H]2C)NC(=O)[C@H](Cc2c[nH]c3ccccc23)NC1=O
target_of_assay: Enterococcus faecium VanS (code 568)
Minimal Inhibitory Concentrations, µg/mL: 16
--
smiles_repr: C=C1NC(=O)[C@H](C(C)C)NC(=O)[C@H](NC(=O)/C(=C/C)NC(=O)[C@@H](N)[C@@H](C)CC)CSC[C@@H](C(=O)N[C@H]2C(=O)N3CCC[C@H]3C(=O)NCC(=O)N[C@H](C(=O)N[C@H](C(=O)N[C@@H]3CSC[C@@H]4NC(=O)CNC(=O)[C@@H](CSC[C@@H]5NC(=O)[C@H](Cc6c[nH]cn6)NC(=O)[C@@H](CSC[C@@H](C(=O)NCCCCN(C)C)NC5=O)NC4=O)NC(=O)CNC(=O)CNC(=O)CNC(=O)[C@H](CCC(=O)NCCCCN(C)C)NC3=O)[C@@H](C)O)CS[C@H]2C)NC(=O)[C@H](Cc2c[nH]c3ccccc23)NC1=O
target_of_assay: Enterococcus faecium VanS (code 568)
Minimal Inhibitory Concentrations, µg/mL: 2
--
smiles_repr: C=C1NC(=O)[C@H](C(C)C)NC(=O)[C@H](NC(=O)/C(=C/C)NC(=O)[C@@H](N)[C@@H](C)CC)CSC[C@@H](C(=O)N[C@H]2C(=O)N3CCC[C@H]3C(=O)NCC(=O)N[C@H](C(=O)N[C@H](C(=O)N[C@@H]3CSC[C@@H]4NC(=O)CNC(=O)[C@@H](CSC[C@@H]5NC(=O)[C@H](Cc6c[nH]cn6)NC(=O)[C@@H](CSC[C@@H](C(=O)NCCCN(C)C)NC5=O)NC4=O)NC(=O)CNC(=O)CNC(=O)CNC(=O)[C@H](CCC(=O)NCCCN(C)C)NC3=O)[C@@H](C)O)CS[C@H]2C)NC(=O)[C@H](Cc2c[nH]c3ccccc23)NC1=O
target_of_assay: Enterococcus faecium VanS (code 568)
Minimal Inhibitory Concentrations, µg/mL: 2

Req: Data request, read-out Minimal Inhibitory Concentrations, for C=CCNC(=O)CC[C@@H]1NC(=O)[C@H](NC(=O)[C@@H](NC(=O)[C@@H]2CS[C@@H](C)[C@@H](NC(=O)[C@@H]3CSC[C@@H](NC(=O)/C(=C/C)NC(=O)[C@@H](N)[C@@H](C)CC)C(=O)N[C@@H](C(C)C)C(=O)NC(=C)C(=O)N[C@@H](Cc4c[nH]c5ccccc45)C(=O)N3)C(=O)N3CCC[C@H]3C(=O)NCC(=O)N2)[C@@H](C)O)CSC[C@@H]2NC(=O)CNC(=O)[C@@H](CSC[C@@H]3NC(=O)[C@H](Cc4c[nH]cn4)NC(=O)[C@@H](CSC[C@@H](C(=O)NCC=C)NC3=O)NC2=O)NC(=O)CNC(=O)CNC(=O)CNC1=O
Resp: 8

Data origin, for the record: patent US20120053115A1
